Assignment: determine reported CC50 for the given compounds.
Test system: HepG2.2.15 cells
Assay: Cytotoxicity determination in HepG2.2.15 cells (CCK-8 cell viability)
Format: cell-based
Settings: 6 days treatment, CCK-8, highest concentration 100 uM
Give bare numbers, in µM.

{"compound": "CCOC(=O)C1=C(CN2CCO[C@H]3CN(CC(C)(C)C(=O)O)C(=O)[C@H]32)NC(c2nccs2)=N[C@H]1c1ccc(F)cc1Cl (relative stereo) [Compound I-20A]", "measurement-kind": "CC50", "unit-abbreviation": "µM", "value-measured": 55}

Lab note: next compound to report on.
Look at this compound and give its reported CC50. CCOC(=O)C1=C(CN2CCO[C@H]3CN(CC(C)(C)C(=O)O)C[C@H]32)NC(c2nccs2)=N[C@H]1c1ccc(F)cc1Cl (relative stereo) [Compound I-1A]
59.8
